targetOrSystem: cloned human glucagon receptor (Homo sapiens, UniProt P47871)
Construct: expressed in transfected cells; plasma membrane preparation
Sequence (P47871 26-477): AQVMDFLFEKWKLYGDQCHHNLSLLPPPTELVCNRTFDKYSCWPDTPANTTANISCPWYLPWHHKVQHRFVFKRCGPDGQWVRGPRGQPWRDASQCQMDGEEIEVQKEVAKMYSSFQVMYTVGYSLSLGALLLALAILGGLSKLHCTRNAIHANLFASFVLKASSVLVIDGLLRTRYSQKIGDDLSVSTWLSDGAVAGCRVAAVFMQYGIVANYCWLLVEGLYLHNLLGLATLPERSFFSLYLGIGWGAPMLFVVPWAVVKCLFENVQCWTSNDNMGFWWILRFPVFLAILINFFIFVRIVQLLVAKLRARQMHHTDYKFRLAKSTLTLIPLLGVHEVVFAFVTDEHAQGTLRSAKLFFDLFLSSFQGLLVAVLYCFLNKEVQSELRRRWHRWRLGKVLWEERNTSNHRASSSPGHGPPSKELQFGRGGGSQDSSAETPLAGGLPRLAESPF
assayInfo: Glucagon Binding Assay (II)
setupConditions: plasma membranes of BHK cells expressing the receptor; read-out: Glu Bd Assay (II) IC50
Returns: string. Value is condition met if measured IC50 is below 0.02 µM, and condition not met if it is greater than or equal to it.

Some entries whose results are on file:
> print(dat)
                                   molecule                cat
1  O=C(Nc1nn[nH]n1)c1ccc(CN(C(=O)Nc2ccc(OC(F)(F)F)cc2)[C@H]2CC[C@H](C3CCCCC3)CC2)cc1 [Example 576]      condition met
2  O=C(O)CCNC(=O)c1ccc(CN(C(=O)Nc2ccc(OC(F)(F)F)cc2)C2Cc3ccccc3C2)cc1 [Example 137]  condition not met
3  O=C(Nc1nn[nH]n1)c1ccc(CN(C(=O)Nc2cccc(I)c2)c2ccc(C3=CCCCC3)cc2)cc1  condition not met
4  O=C(Nc1nn[nH]n1)c1ccc(CN(Cc2ccc(OC(F)(F)F)cc2)c2ccc(C3CCCCC3)cc2)cc1 [Example 388]  condition not met
5  O=C(O)CCNC(=O)c1ccc(CN(Cc2cccc(Cl)c2)c2ccc(C3CCCCC3)cc2)cc1 [Example 583]  condition not met
6  CC(C)(C)C1CCC(N(Cc2ccc(C(=O)Nc3nn[nH]n3)cc2)C(=O)C=Cc2c(Cl)cccc2Cl)CC1 (stereo not drawn) [Example 477]  condition not met

# TODO verify IC50 < 0.02 µM strictly for this molecule: Cc1cc(C)c(Cc2ccc(C(=O)NN(Cc3ccc(C(=O)NCCC(=O)O)cc3)[C@H]3CC[C@@H](C(C)(C)C)CC3)o2)c(C)c1 [Example 591]
condition met

Does CCOC(=O)C(C)(C)C1CCC(N(Cc2ccc(C(=O)NCCC(=O)O)cc2)C(=O)Nc2ccc(OC(F)(F)F)cc2)CC1 (stereo not drawn) [Example 611] have IC50 strictly under 0.02 µM?
condition not met

Just wondering, is IC50 of CC(C)(C)C1CCC(N(Cc2ccc(C(=O)NCc3nn[nH]n3)cc2)C(=O)Nc2cc(Cl)cc(Cl)c2)CC1 (stereo not drawn) [Example 173] below 0.02 µM?
condition not met

Could you please tell me whether IC50 recorded for CC(C)(C)[C@H]1CC[C@H](N(Cc2ccc(C(=O)Nc3nn[nH]n3)cc2)C(=O)Nc2cc(Cl)cc(Cl)c2)CC1 [Example 174] is less than 0.02 µM?
condition met

Consider O=C(O)CCNC(=O)c1ccc(CN(C(=O)NCc2cc(Cl)cc(Cl)c2)c2ccc(C3CCCCC3)cc2)cc1 [Example 395] . Does its IC50 lie strictly below 0.02 µM?
condition not met

Check if IC50 falls below 0.02 µM for C[C@@H](C1CCCCC1)N(Cc1ccc(C(=O)NCCC(=O)O)cc1)C(=O)Nc1cc(Cl)cc(Cl)c1 [Example 140] .
condition not met

----------
As shown below, each of these molecules has a reported Glu Bd Assay (I) Effect, 100-Residual binding (%) at 1 μM value.
targetOrSystem: cloned human glucagon receptor (Homo sapiens)
Construct: expressed in transfected cells; plasma membrane preparation
assayInfo: Glucagon Binding Assay (I)
setupConditions: at 1 μM
# number only, unit % dropped from output

> print(dat)
                                   molecule  unitstext  number
1  CCCCC(CC)CN(Cc1ccc(C(=O)NCCC(=O)O)cc1)C(=O)/C=C/c1c(Cl)cccc1Cl (stereo not drawn) [Example 5]          %    31.1
2  CC(C)(C)C1CCC(N(Cc2ccc(C(=O)NCCC(=O)O)cc2)C(=O)Cc2csc3ccccc23)CC1 (stereo not drawn) [Example 3]          %    26.2
3  CC(C)(C)C1CCC(N(Cc2ccc(C(=O)NCCC(=O)O)cc2)C(=O)c2cc3ccccc3s2)CC1 (stereo not drawn) [Example 4]          %    28.5

Consider the molecule shown here: CC(C)(C)c1ccc(CN(Cc2ccc(C(=O)NCCC(=O)O)cc2)C(=O)/C=C/c2c(Cl)cccc2Cl)cc1 [Example 6] What is its recorded Glu Bd Assay (I) Effect, 100-Residual binding (%) at 1 μM?
29.5

Item under review: O=C(O)CCNC(=O)c1ccc(CN(CCC(c2ccccc2)c2ccccc2)C(=O)c2ccc(Cl)cc2)cc1 [Example 8] . Reported Glu Bd Assay (I) Effect, 100-Residual binding (%) at 1 μM?
37.8

Requested read-out: Glu Bd Assay (I) Effect, 100-Residual binding (%) at 1 μM. Entry: CC(C)(C)c1ccc(CN(Cc2ccc(C(=O)NCCC(=O)O)cc2)C(=O)c2cc3ccccc3s2)cc1 [Example 7]
30.4

Where do the numbers come from? From patent US6875760B2.
